Assign Residual activity [%] to each entry below.
# Target of assay: T1, VLP2 (virus-like particles of AAV2) (AAV2, UniProt P03135 1-735; P03135 1-598; P03135 1-533)
# T1 construct: Empty AAV2 capsid; background says about 60 protein molecules, VP1:VP2:VP3 = 1:1:10; Immobilised on the ELISA plate
# T1 sequence (P03135 whole entry, chain 1 of 3): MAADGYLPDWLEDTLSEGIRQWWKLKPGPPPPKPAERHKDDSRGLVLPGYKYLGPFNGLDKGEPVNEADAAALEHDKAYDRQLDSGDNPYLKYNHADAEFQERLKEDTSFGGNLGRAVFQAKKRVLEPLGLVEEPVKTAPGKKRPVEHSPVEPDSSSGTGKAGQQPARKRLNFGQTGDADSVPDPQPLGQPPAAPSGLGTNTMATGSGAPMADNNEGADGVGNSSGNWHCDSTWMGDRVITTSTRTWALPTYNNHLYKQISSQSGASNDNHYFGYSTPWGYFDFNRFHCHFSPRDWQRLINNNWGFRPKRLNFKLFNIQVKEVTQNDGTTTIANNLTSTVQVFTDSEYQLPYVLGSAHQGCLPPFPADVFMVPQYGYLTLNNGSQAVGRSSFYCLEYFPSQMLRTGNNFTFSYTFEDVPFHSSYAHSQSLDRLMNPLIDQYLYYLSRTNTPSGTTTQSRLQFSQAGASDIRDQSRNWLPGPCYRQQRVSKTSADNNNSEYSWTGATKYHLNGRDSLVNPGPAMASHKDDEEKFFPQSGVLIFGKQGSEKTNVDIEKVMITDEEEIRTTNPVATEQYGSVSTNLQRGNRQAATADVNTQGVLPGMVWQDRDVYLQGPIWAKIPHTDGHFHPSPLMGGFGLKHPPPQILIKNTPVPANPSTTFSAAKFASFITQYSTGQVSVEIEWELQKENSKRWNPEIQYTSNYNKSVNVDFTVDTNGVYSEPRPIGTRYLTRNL
# T1 sequence (P03135 139-735, tags left off, chain 2 of 3): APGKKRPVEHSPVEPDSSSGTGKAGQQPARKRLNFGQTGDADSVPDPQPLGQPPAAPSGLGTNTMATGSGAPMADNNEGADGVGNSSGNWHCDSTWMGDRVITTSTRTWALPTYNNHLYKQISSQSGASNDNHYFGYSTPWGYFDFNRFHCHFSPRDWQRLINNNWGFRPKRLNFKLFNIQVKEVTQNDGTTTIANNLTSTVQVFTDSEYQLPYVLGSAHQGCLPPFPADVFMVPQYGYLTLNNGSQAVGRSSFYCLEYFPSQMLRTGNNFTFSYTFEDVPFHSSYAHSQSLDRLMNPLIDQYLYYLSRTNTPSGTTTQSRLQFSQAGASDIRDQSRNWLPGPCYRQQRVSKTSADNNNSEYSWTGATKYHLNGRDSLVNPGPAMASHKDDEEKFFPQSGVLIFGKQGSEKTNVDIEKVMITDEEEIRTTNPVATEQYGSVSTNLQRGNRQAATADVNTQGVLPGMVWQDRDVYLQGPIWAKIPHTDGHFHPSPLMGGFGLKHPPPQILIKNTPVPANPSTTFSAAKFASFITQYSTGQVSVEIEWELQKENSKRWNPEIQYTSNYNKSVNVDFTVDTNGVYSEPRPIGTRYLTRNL
# T1 sequence (P03135 203-735, chain 3 of 3): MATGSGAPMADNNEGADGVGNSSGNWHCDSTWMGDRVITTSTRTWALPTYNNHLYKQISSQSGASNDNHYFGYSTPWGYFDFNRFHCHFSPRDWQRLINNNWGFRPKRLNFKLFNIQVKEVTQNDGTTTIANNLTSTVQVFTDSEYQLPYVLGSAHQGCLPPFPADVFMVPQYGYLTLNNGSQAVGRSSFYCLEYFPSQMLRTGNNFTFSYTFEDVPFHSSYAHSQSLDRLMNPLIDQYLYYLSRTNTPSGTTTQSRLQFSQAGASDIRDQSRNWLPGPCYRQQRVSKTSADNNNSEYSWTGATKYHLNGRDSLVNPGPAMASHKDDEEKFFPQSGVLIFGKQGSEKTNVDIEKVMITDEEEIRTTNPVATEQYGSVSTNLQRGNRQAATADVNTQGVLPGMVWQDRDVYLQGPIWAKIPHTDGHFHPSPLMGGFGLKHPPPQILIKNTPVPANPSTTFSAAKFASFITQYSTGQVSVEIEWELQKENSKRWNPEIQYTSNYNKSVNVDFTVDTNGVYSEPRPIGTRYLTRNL
# Assay notes: ELISA on VLP2; binding after pH 10.0 41.2°C 15 min / untreated

The following binders have reported results that may help.
# Binder, Metric, Recorded value
measured = [
    ("AAV-binding protein No. 107 (AVR8g + Ser356Cys) (receptor) MGSAGESDQITLPKNEVQLNAYVLQEPPKGETCTYDWQLITHPRDYCGEMEGEHSQILKLSNLTPGLYEFKVIVEGQNAHSEGYVNVTVEPEPRKNRPPIAIVSPQFQEISLPTTSTVIDGSQSTDDDKIVQYHWEELKGPLREEKISEDTAILKLSKLVPGNYTFRLTVVDSDGATDSTTANLTVNKAVDHHHHHH", "Residual activity [%]", "67.6%"),
    ("AAV-binding protein No. 142 (AVR8g + Glu378Gly, Arg403His) (receptor) MGSAGESDQITLPKNEVQLNAYVLQEPPKGETCTYDWQLITHPRDYSGEMEGEHSQILKLSNLTPGLYGFKVIVEGQNAHSEGYVNVTVEPEPHKNRPPIAIVSPQFQEISLPTTSTVIDGSQSTDDDKIVQYHWEELKGPLREEKISEDTAILKLSKLVPGNYTFRLTVVDSDGATDSTTANLTVNKAVDHHHHHH", "Residual activity [%]", "76.6%"),
]

Batch of 2 binders: report Residual activity [%] for each.
1. AAV-binding protein No. 114 (AVR8g + Leu372Pro) (receptor) MGSAGESDQITLPKNEVQLNAYVLQEPPKGETCTYDWQLITHPRDYSGEMEGEHSQILKLSNPTPGLYEFKVIVEGQNAHSEGYVNVTVEPEPRKNRPPIAIVSPQFQEISLPTTSTVIDGSQSTDDDKIVQYHWEELKGPLREEKISEDTAILKLSKLVPGNYTFRLTVVDSDGATDSTTANLTVNKAVDHHHHHH
2. AAV-binding protein No. 129 (AVR8g + Ala313Ser, Glu378Gly) (receptor) MGSSGESDQITLPKNEVQLNAYVLQEPPKGETCTYDWQLITHPRDYSGEMEGEHSQILKLSNLTPGLYGFKVIVEGQNAHSEGYVNVTVEPEPRKNRPPIAIVSPQFQEISLPTTSTVIDGSQSTDDDKIVQYHWEELKGPLREEKISEDTAILKLSKLVPGNYTFRLTVVDSDGATDSTTANLTVNKAVDHHHHHH

91.6%
67.5%

Dear colleague, could you send me Residual activity [%] for each of the items below? Thanks.
1. AAV-binding protein No. 140 (AVR8g + Leu372Pro, Val396Ala) (receptor) MGSAGESDQITLPKNEVQLNAYVLQEPPKGETCTYDWQLITHPRDYSGEMEGEHSQILKLSNPTPGLYEFKVIVEGQNAHSEGYVNATVEPEPRKNRPPIAIVSPQFQEISLPTTSTVIDGSQSTDDDKIVQYHWEELKGPLREEKISEDTAILKLSKLVPGNYTFRLTVVDSDGATDSTTANLTVNKAVDHHHHHH
2. AAV-binding protein No. 134 (AVR8g + Asn329Ile, Val499Ile) (receptor) MGSAGESDQITLPKNEVQLIAYVLQEPPKGETCTYDWQLITHPRDYSGEMEGEHSQILKLSNLTPGLYEFKVIVEGQNAHSEGYVNVTVEPEPRKNRPPIAIVSPQFQEISLPTTSTVIDGSQSTDDDKIVQYHWEELKGPLREEKISEDTAILKLSKLVPGNYTFRLTVVDSDGATDSTTANLTVNKAIDHHHHHH

["92.8%", "63.9%"]
